- TEST_SYSTEM: His-hMAGL (recombinant polyhistidine tagged human MAGL protein) (Homo sapiens, UniProt Q99685)
- Construct: polyhistidine (His) (N); made in house; host or cells: E. coli BL21(DE3)
- Sequence (Q99685 1-303): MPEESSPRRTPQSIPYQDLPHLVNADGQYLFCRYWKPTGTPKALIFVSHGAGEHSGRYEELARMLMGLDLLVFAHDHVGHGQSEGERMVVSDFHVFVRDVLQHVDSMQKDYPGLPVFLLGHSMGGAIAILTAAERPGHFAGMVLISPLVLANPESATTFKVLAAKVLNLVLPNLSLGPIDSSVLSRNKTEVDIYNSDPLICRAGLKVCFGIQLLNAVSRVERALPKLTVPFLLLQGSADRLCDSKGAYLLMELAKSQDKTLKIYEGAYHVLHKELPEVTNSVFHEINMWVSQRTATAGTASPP
- METHOD_SUMMARY: Measurement of MAGL inhibitory activity (RapidFire-mass spectrometry of arachidonic acid produced from 2-arachidonylglycerol)
- Assay type: biochemical
- TEST_CONTEXT: test compound 10 μM; His-hMAGL; substrate 2-arachidonylglycerol; 60 min preincubation; 10 µM
ASSAY_METRIC: % inhibition (10 μM) (%)
Numeric only. Scale: %

{"MOLECULE": "CC(Oc1ccc(Cl)cc1F)C1CCN(C(=O)[C@H]2C[C@]3(COC(=O)N3)C2)CC1 (some centres unmarked) [Example 32]", "OBSERVED_VALUE": 100}
{"MOLECULE": "CC1(C2CCN(C(=O)[C@H]3C[C@]4(COC(=O)N4)C3)CC2)Cc2ccc(C(F)(F)F)cc2O1 (some centres unmarked) [Example 70]", "OBSERVED_VALUE": 101}
{"MOLECULE": "CC(Oc1ccc(F)c(F)c1F)C1CCN(C(=O)[C@H]2C[C@]3(COC(=O)N3)C2)CC1 (some centres unmarked) [Example 81]", "OBSERVED_VALUE": 100}
{"MOLECULE": "Cc1cc(F)ccc1OC(C)C1CCN(C(=O)[C@H]2C[C@]3(COC(=O)N3)C2)CC1 (some centres unmarked) [Example 33]", "OBSERVED_VALUE": 101}
{"MOLECULE": "CC1(C2CCN(C(=O)[C@H]3C[C@]4(COC(=O)N4)C3)CC2)Cc2cc(C(F)(F)F)ccc2O1 (some centres unmarked) [Example 69]", "OBSERVED_VALUE": 101}

Name the recorded % inhibition (10 μM) of the molecule listed here: CC1(C2CCN(C(=O)[C@H]3C[C@]4(COC(=O)N4)C3)CC2)Cc2cc(C(F)(F)F)ccc2O1 (some centres unmarked) [Example 68]
100

Name the recorded % inhibition (10 μM) of the molecule listed here: CC(Oc1ccc(Cl)cc1F)C1CCN(C(=O)[C@H]2C[C@]3(COC(=O)N3)C2)CC1 (some centres unmarked) [Example 31]
101

Name the recorded % inhibition (10 μM) of the molecule listed here: Cc1cc(F)ccc1OC(C)C1CCN(C(=O)[C@H]2C[C@]3(COC(=O)N3)C2)CC1 (some centres unmarked) [Example 34]
101

---

- TEST_SYSTEM: His-hMAGL (recombinant polyhistidine tagged human MAGL protein) (Homo sapiens)
- Construct: polyhistidine (His) (N); made in house; host or cells: E. coli BL21(DE3)
- Sequence (Q99685 1-303): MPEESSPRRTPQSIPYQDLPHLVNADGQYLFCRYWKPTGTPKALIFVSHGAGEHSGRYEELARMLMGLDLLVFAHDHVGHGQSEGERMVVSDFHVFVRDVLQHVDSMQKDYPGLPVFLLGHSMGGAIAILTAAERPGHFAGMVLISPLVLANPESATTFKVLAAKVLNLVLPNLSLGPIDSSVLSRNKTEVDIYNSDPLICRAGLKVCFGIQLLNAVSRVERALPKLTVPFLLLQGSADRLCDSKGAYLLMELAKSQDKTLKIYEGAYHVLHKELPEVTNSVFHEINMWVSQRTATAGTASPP
- METHOD_SUMMARY: Measurement of MAGL inhibitory activity (RapidFire-mass spectrometry of arachidonic acid produced from 2-arachidonylglycerol)
- Format: biochemical
- TEST_CONTEXT: test compound 10 μM; His-hMAGL; substrate 2-arachidonylglycerol; 60 min preincubation; read-out: % inhibition (10 μM)
ASSAY_METRIC: inhibition at 10 µM (%)
Numeric only. Scale: %

Use these answered entries as a reference point.
{"COMPOUND": "Cc1cc(Cl)ccc1COC1CN(C(=O)[C@H]2C[C@]3(COC(=O)N3)C2)C1 [Example 92]", "UOM": "%", "OBSERVED_VALUE": 100}
{"COMPOUND": "CCC1(COc2ccc(F)cc2Cl)CCN(C(=O)[C@H]2C[C@]3(COC(=O)N3)C2)CC1 [Example 44]", "UOM": "%", "OBSERVED_VALUE": 101}

Name the recorded inhibition at 10 µM of the compound listed here: O=C1N[C@]2(CO1)C[C@H](C(=O)N1CC(CC(F)(F)c3ccc(Cl)c(C(F)(F)F)c3)C1)C2 [Example 118]
100

Name the recorded inhibition at 10 µM of the compound listed here: CC(Oc1ccc(F)cc1C(F)(F)F)C1CCN(C(=O)[C@H]2C[C@]3(COC(=O)N3)C2)CC1 (stereo partly shown) [Example 59]
100
